Target: T1, APG293 (human CD95L-T4) (human)
T1 chain: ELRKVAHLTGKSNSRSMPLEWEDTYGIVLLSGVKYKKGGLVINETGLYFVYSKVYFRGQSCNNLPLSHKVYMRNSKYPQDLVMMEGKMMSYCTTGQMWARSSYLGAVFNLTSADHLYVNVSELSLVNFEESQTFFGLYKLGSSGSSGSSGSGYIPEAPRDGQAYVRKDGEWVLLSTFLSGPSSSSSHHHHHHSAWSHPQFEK
Assay: cell-based or functional assay
EXPERIMENTAL ENDPOINT: EC50, Assay 4: antagonism of CD95L-T4-induced apoptosis on Jurkat A3 cells (µg/mL)

- rabbit monoclonal anti-CD95L antibody clone 145-12 (antibody, V domains shown, Rabbit monoclonal IgG from a hybridoma subclone; Only VH and VL are tied to the clone by name; also called mAB145-12; mAb145-12) VH: QSLEESGGDLVKPGASLTLTCTASGFSFSSGYDMCWVRQAPGKGLEWIACIDTDNDATYYASWAKGRFTISKPSSTTVLLQITSLTAADTATYFCATTHGDYVAFKLWGPGTLVTVSS VL: QVLTQTASSVSAAVGGTVTINCQSSQSVYKNNDLSWYQQKPRQPPKLLIYQASKLASGVPSRFKGSGSGTQFTLTIGDLECDDGATYYCAGGYTASIYAFGGGTEVVVKG: 0.192
- scFv-minibody SEQ ID 51 (scFv) scFv: EVQLVESGGGLVQPGGSLRLSCAASGFSFSDHYWMSWVRQAPGKGLEWVSAIYTADSDSYYADSVKGRFTISKDSSKNTLYLQMNSLRAEDTAVYYCARNGAYAGGPYGDLWGQGTLVTVSGGGSGGGSGGGSGGGSDIQMTQSPSSLSASVGDRVTITCKASQSIRTSLVWYQQKPGKAPKLLIYKASDLPSGVPSRFSGSGSGTDFTLTISSLQPEDFATYYCQSYDFRDTINNGHSFGQGTKVEIKGSGSSGQPREPQVYTLPPSREEMTKNQVSLTCLVKGFYPSDIAVEWESQGSPENNYKTTPPVLDSDGSFFLYSKLTVDKSRWQQGNVFSCSVMHEALHNHYTQKSLSLSPGSSSSSSAWSHPQFEK: 2.26
- scFv-minibody SEQ ID 50 (scFv) scFv: EVQLVESGGGLVQPGGSLRLSCAASGFSFSDHYWMCWVRQAPGKGLEWVACIYTADSDSYYADSVKGRFTISKDSSKNTLYLQMNSLRAEDTAVYYCARNGAYAGGPYGDLWGQGTLVTVSGGGSGGGSGGGSGGGSDIQMTQSPSSLSASVGDRVTITCKASQSIRTSLVWYQQKPGKAPKLLIYKASDLPSGVPSRFSGSGSGTDFTLTISSLQPEDFATYYCQSYDFRDTINNGHSFGQGTKVEIKGSGSSGQPREPQVYTLPPSREEMTKNQVSLTCLVKGFYPSDIAVEWESQGSPENNYKTTPPVLDSDGSFFLYSKLTVDKSRWQQGNVFSCSVMHEALHNHYTQKSLSLSPGSSSSSSAWSHPQFEK: 0.136
- APG101 (Fc fusion, UniProt P25445 26-173, looked up, not shown: a dimerising Fc or GST) QVTDINSKGLELRKTVTTVETQNLEGLHHDGQFCHKPCPPGERKARDCTVNGDEPDCVPCQEGKEYTDKAHFSSKCRRCRLCDEGHGLEVEINCTRTQNTKCRCKPNFFCNSTVCEHCDPCTKCEHGIIKECTLTSNTKCKEEGSRSN: 0.714
